Reference source for all entries: patent US20200369755A1

- testedSystem: T1, recombinant human 4R0N tau (human, UniProt P10636 2-758)
- T1 construct: also called P10636-6
- T1 sequence (P10636 other isoform, or with tags, fused parts or gaps limits assumed): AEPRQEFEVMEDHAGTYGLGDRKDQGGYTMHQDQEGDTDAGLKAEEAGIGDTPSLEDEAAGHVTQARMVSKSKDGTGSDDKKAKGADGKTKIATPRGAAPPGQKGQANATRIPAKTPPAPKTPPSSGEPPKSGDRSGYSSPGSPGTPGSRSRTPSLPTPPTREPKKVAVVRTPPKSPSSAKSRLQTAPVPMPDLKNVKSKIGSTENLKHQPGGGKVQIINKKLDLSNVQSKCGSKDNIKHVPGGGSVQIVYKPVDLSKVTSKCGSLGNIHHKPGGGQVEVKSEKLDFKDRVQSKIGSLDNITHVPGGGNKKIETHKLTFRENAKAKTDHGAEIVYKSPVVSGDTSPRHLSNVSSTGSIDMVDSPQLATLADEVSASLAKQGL
- assayComment: SPR, Biacore T200, antibody captured on anti-human Fc, tau as analyte, 1:1 fit
- Protocol: Target binding analysis was performed using a Biacore T200 to compare the binding affinity of humanized 3D6 variants to recombinant human 4R0N tau. Anti-Human Fc antibody was immobilized on sensor chip CM3 via amine coupling, and humanized 3D6 variants were captured to equivalent levels. […] Data was blank subtracted to both an irrelevant sensor not containing antibody and 0 nM analyte concentration. Analysis was performed using a global 1:1 fit with Biacore Evaluation software.
Measured koff by item

{"columns": ["binder", "koff / s⁻¹"],
 "data": [
  ["hu3D6VHv1bA11/L2-DIM12 (antibody, V domains shown, Humanized antibody with human Fc) VH: EVQLVQSGAEVVKPGATVKISCKASGFNIKDYYLHWVRQRPGQGLEWIGWIDPENGDTVYDPKFQGRATITADTSTDTAYLQLGSLTSEDTAVYFCSTLDFWGQGTLVTVSS VL: DVVMTQSPLSLPVTLGQPASISCKSSQSLLDSDGKTYLNWLQQRPGQSPRRLIYLVSKDDSGVPDRFSGSGSGTDFTLKISRVEAEDVGVYYCWQGTHFPYTFGGGTKLEIK", 0.00133],
  ["hu3D6VHv1bA11/L2-DIM3 (antibody, V domains shown, Humanized antibody with human Fc) VH: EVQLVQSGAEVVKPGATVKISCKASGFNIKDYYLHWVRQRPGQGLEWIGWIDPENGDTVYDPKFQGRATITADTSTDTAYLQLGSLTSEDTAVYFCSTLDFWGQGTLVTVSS VL: DVVMTQSPLSLPVTLGQPASISCKSSQSLLDSDGKTYLNWLQQRPGQSPRRLIYLVGKGDSGVPDRFSGSGSGTDFTLKISRVEAEDVGVYYCWQGTHFPYTFGGGTKLEIK", 0.000781],
  ["hu3D6VHv1bA11/L2-DIM19 (antibody, V domains shown, Humanized antibody with human Fc) VH: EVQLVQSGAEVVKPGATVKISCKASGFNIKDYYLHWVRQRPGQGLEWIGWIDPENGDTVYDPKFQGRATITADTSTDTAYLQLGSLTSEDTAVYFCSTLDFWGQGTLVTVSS VL: DVVMTQSPLSLPVTLGQPASISCKSSQSLLDSDGKTYLNWLQQRPGQSPRRLIYEVSKGDSGVPDRFSGSGSGTDFTLKISRVEAEDVGVYYCWQGTHFPYTFGGGTKLEIK", 5.88]
]}
